Reported Dmax is given for each of the following compounds.
- measurement-target: SMARCA2 (Homo sapiens)
- Construct: SMARCA2-HiBiT knock-in Hela monoclonal cell (CS302366); host or cells: HeLa monoclonal cells with heterozygous HiBiT knock-in at the endogenous SMARCA2 locus
- Sequence (P51531 whole entry): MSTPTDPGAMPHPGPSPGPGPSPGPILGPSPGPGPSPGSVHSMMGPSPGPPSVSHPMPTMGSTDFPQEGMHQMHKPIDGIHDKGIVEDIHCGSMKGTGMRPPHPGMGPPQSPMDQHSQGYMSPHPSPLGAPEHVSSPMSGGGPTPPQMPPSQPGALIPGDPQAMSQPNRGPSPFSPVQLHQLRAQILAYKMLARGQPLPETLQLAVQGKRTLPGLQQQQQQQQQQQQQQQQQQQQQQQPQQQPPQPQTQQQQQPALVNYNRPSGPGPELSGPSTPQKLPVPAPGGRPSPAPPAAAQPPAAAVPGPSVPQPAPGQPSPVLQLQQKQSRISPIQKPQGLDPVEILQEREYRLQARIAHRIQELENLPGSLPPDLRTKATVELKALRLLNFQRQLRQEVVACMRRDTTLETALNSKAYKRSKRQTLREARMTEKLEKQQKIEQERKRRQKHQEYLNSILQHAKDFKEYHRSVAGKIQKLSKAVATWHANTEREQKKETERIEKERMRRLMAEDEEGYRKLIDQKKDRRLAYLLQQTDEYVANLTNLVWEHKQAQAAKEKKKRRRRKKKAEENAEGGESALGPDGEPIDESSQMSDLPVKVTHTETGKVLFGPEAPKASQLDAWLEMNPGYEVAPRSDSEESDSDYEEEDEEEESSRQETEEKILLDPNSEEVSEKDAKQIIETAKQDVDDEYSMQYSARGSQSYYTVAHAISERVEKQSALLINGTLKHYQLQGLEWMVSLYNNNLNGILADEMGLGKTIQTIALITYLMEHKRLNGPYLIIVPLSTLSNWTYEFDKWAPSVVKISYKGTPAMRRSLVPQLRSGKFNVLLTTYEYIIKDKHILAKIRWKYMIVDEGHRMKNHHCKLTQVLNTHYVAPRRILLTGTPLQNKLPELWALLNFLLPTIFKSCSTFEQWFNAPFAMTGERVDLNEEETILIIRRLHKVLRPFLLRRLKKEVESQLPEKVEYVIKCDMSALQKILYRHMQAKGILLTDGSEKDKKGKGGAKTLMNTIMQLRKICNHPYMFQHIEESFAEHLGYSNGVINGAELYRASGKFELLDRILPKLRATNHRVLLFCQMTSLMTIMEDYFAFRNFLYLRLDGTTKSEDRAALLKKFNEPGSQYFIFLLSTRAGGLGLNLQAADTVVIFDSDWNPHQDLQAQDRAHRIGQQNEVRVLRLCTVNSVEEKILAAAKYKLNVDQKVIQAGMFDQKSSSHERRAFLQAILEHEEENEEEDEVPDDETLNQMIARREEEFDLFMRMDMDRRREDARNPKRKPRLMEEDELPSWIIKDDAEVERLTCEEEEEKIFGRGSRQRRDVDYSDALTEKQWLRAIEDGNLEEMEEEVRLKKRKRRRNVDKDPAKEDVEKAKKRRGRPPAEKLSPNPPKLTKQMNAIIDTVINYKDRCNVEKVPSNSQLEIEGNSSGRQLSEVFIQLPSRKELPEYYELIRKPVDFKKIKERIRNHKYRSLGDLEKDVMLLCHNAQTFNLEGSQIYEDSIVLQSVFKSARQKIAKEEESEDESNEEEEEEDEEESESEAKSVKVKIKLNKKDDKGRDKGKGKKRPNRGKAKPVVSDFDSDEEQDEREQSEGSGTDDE
- test-details: SMARCA2 HiBiT degradation assay in HeLa cells
- Format: cell-based
- experimental-context: 18 hours, highest concentration 10 μM

Record excerpt, results attached:
[[record]]
compound = "O=C1CCC(N2Cc3ccc(N4CCN(Cc5ccc(O[C@@H]6C[C@@H]7CNc8nnc(-c9cc(F)cc(Cl)c9O)cc8N7C6)cc5)CC4)cc3C2=O)C(=O)N1 (stereo partly drawn)"
assay_value = "> 75%"

[[record]]
compound = "CC[C@@]12CNc3nnc(-c4cccc(F)c4O)cc3N1C[C@H](Oc1ncc(CN3CCN(c4ccc5c(c4)C(=O)N(C4CCC(=O)NC4=O)C5)CC3)c(C)c1F)C2 (stereo partly drawn)"
assay_value = "> 75%"


Dmax recorded for this compound, CN(c1ccc(CN2CCN(c3ccc4c(c3)C(=O)N(C3CCC(=O)NC3=O)C4)CC2)cn1)[C@@H]1C[C@@H]2CNc3nnc(-c4cccc(F)c4O)cc3N2C1 (stereo partly drawn) , is 50 to 75%
